- Test system: UO-31 renal
- run.description: NCI tumour cell line growth inhibition, 48 h; in the data active means GI50 below about 0.43 µM; inactive means the rest
Output constraint: value belongs to Yes (active), No (inactive)

Completed entries (count: 3):
> print(dat)
                              smiles.string  cat
1  O=C(Cn1ccnc1[N+](=O)[O-])NCC(F)(F)C(F)(F)F   No
2  CCOn1cc(C2=C(c3c[nH]c4ccccc34)C(=O)NC2=O)c2ccccc21   No
3  CCCC(=O)NNc1[nH]c(-c2ccc(OC)cc2)cc1C(=O)OCC   No

**Query** Recorded call for C/C(=C\c1ccn(-c2ccc(N)cc2)n1)[C@@H]1C[C@@H]2O[C@]2(C)CCC[C@H](C)[C@H](O)[C@@H](C)C(=O)C(C)(C)[C@@H](O)CC(=O)O1 ?
**Result** Yes

**Query** One more compound: COc1cnc2c(c1)C(=O)c1c-2n(CCCN2CCN(C)CC2)c(=O)c2cc(Cl)ccc12
**Result** No

**Query** One more compound: C=C[C@]1(C)C=C2C(=O)[C@@]3(O)OC(=O)[C@@]4(CCCC(C)(C)[C@H]34)[C@@]2(O)CC1
**Result** No

**Query** One more compound: COc1cccc2c1c1nc3cc(C)c(C)cc3nc1n2CCN(C)C
**Result** Yes

====

- Tested on: CAKI-1 renal
- run.description: NCI tumour cell line growth inhibition, 48 h
property.name: TGI

Below are worked cases with known answers.
molecule	TGI
COC1/C=C\OC2(C)Oc3c(C)c(O)c4c(O)c(c(CN(C)C)c(O)c4c3C2=O)NC(=O)/C(C)=C\C=C/C(C)C(O)C(C)C(O)C(C)C(OC(C)=O)C1C (stereo not given)	> 100 µM
[N-]=[N+]=CC(=O)OCC(N)C(=O)O (stereo not given)	> 100 µM
O=C(/C=C/c1ccccc1)CCC1C(=O)NC(=O)NC1=O	> 100 µM
CN1CCN(Cc2ccc(Nc3ncc(Cl)c(Nc4ccccc4S(=O)(=O)N(C)C)n3)cc2)CC1	1.09 µM
Cc1nc2ccc(N=NN(C)C)cc2[nH]1	> 100 µM
NC(=S)N/N=C(/C(=O)Nc1nc2ccc([N+](=O)[O-])cc2s1)C1C(=O)NC(=S)NC1=O	> 100 µM

**Query** What reported TGI corresponds to C=CC(c1ccccc1)C1(O)c2cccc(O)c2C(=O)c2c(O)cccc21 (stereo not given) on CAKI-1 renal?
**Result** 42.5 µM

====

- Test system: SNB-19 CNS
- run.description: NCI tumour cell line growth inhibition, 48 h
Some compounds, each annotated with its measured TGI.

> print(dat)
                                   compound  property.name  endpoint.result
1  COc1ccc(-n2cnc3c(NC(C)(C)C(=O)O)ncnc32)cc1            TGI         > 100 µM

**Query** What reported TGI corresponds to C/C(=N/NC(=S)N1CCCC1)c1cccc(/C(C)=N\NC(=S)N2CCCC2)n1 on SNB-19 CNS?
**Result** 12.1 µM

**Query** One more compound: O=C(CCCN1CC=C(n2c(=O)[nH]c3ccccc32)CC1)c1cccs1
**Result** > 100 µM

====

- System: ACHN renal
- run.description: NCI tumour cell line growth inhibition, 48 h
property.name: TGI

Below are worked cases with known answers.
> print(dat)
                                   molecule  assay.system  property.name  endpoint.result
1  CCOC(=O)c1c(NC(=O)c2ccc(OC)cc2)sc2c1CCCC2    ACHN renal            TGI         > 100 µM
2  COc1ccc(/C(Cl)=C(\C=O)c2ccc(Cl)c(Cl)c2)cc1OC    ACHN renal            TGI          18.2 µM
3              Cc1n[nH]c(=O)n1/N=C/c1cccnc1    ACHN renal            TGI         > 100 µM

**Query** What reported TGI corresponds to CC(Oc1ccc(Cl)cc1Cl)C(=O)NN1C(=O)CSC1c1ccc(Cl)cc1 (stereo not drawn) on ACHN renal?
**Result** > 100 µM

**Query** One more molecule: CC1(C)OC(=O)CC12CCN(Cc1ccccc1)CC2
**Result** > 100 µM

**Query** One more molecule: CCOC(=O)c1c(Cl)c2c(n1Cc1cc(OC)cc(OC)c1)-c1oncc1CCC2
**Result** > 100 µM

**Query** One more molecule: Cc1ccc(C(=O)NC2CCCCC2)cc1-c1ccc(C(=O)NCC2CC2)cc1
**Result** > 25 µM

**Query** One more molecule: O=C(O)Cc1[nH]cnc1C(=O)O
**Result** > 100 µM

**Query** One more molecule: CCCCc1ccc(N2C(=O)c3cccnc3S2(=O)=O)cc1
**Result** > 100 µM

**Query** One more molecule: O=C1OC2(c3ccc(O)cc3Oc3cc(O)ccc32)c2c1c(-c1ccccc1)c(-c1ccccc1)c(-c1ccccc1)c2-c1ccccc1
**Result** 40.9 µM

**Query** One more molecule: CCC(=C(c1ccc(OCc2ccccc2)cc1)c1ccc(OCc2ccccc2)cc1)c1ccc(OC)cc1
**Result** > 100 µM

====

Some compounds, each annotated with its measured TGI.
- Test system: HL-60(TB) leukemia
- run.description: NCI tumour cell line growth inhibition, 48 h

> print(dat)
                                   compound  endpoint.result
1  COC(=O)[C@]12CSC[C@H]1C[C@H](c1ccc(N(C)C)cc1)N2         > 100 µM
2  CC(=O)Nc1ccc(/C=C/C(=O)c2sc(C(N)=S)nc2C)cc1         > 100 µM
3  COc1ccc(CCN(C)C(=O)CC(C#N)(c2ccccc2)c2ccc(OC)c(OC)c2)cc1OC (stereo unspecified)         > 100 µM

**Query** Recorded TGI of COc1cc(C2S/C(=C/c3ccccc3)C(=O)N2c2ccc([N+](=O)[O-])cc2)cc(OC)c1OC (stereo unspecified) , please.
**Result** > 100 µM

**Query** One more compound: O=C(O)CC1(C(=O)O)CCCCC1
**Result** > 100 µM

**Query** One more compound: O=C1CCSc2c(cnc3ccccc23)N1
**Result** > 100 µM

**Query** One more compound: O=C(C=Nc1ccccc1C(=O)[O-])c1cccs1.O=C(C=Nc1ccccc1C(=O)[O-])c1cccs1.[Cu+2]
**Result** > 100 µM

**Query** One more compound: COc1ccc2c(c1)[n+]([O-])c(-c1nc3ccccc3s1)c(N)[n+]2[O-]
**Result** > 100 µM

**Query** One more compound: Cc1ccc2sc3c(NCCCNCCO)nc4ccccc4c3c(=O)c2c1
**Result** 3.58 µM

**Query** One more compound: COc1ccccc1CNCc1nc2ccccc2[nH]1
**Result** > 100 µM

**Query** One more compound: COc1cc(/C=N/NC2=NCCCN2)ccc1O
**Result** > 100 µM

**Query** One more compound: COc1cc(C(=O)n2nc(N3CCN(C)CC3)c3cc(N)ccc32)cc(OC)c1OC
**Result** 5.14 µM

**Query** One more compound: O=C1C=CC2(C=C1)CCN=c1c(O)c3c(c(O)c12)=NC=N3
**Result** > 100 µM

**Query** One more compound: CC(C)=CCC/C(C)=C/CC/C(=C/COP(=O)(OCc1ccc([N+](=O)[O-])o1)N(C)CCCCCl)C(C)(C)C (stereo unspecified)
**Result** > 100 µM

**Query** One more compound: COC(=O)c1c2c(c(C)[n+]([O-])c1C)C(=O)C(NCc1ccc(F)c(F)c1)=CC2=O
**Result** 4.4 µM

**Query** One more compound: CC[C@H](C)C(=O)O[C@H]1CCC=C2C=C[C@H](C)C(CCC3C[C@@H](O)CC(=O)O3)[C@H]21 (stereo partly specified)
**Result** 52.9 µM

====

- Tested on: COLO 205 colon
- run.description: NCI tumour cell line growth inhibition, 48 h
Where a SMILES comes first, the peptide text is derived from it. The star is where a group is joined. OBn = c1ccc(CO*)cc1
Some molecules, each annotated with its measured TGI.

molecule	assay.system	TGI
COC(=O)N/N=C(\C)C(CN1CCOCC1)C(c1ccccc1)c1cc2ccccc2oc1=O (stereo not drawn)	COLO 205 colon	> 100 µM

**Query** What reported TGI corresponds to NC(CCC(=O)OCc1ccccc1)C(=O)NC(CCC(=O)OCc1ccccc1)C(=O)O (stereo not drawn) (H-Glu(OBn)-Glu(OBn)-OH; configuration not given here) on COLO 205 colon?
**Result** > 100 µM

**Query** One more molecule: CO[C@H]1CC[C@@]2(C)C(=CC[C@H]3[C@@H]4C[C@H](O)C[C@@]4(C)CC[C@@H]32)C1
**Result** 16.2 µM

**Query** One more molecule: CCNc1nc(N2CC(=O)Nc3cc(OC)ccc32)c2ccccc2n1
**Result** 0.00207 µM

**Query** One more molecule: COC(=O)[C@@H](C)C[C@H](Cc1ccccc1)NC(=O)c1csc([C@@H](C[C@H](C(C)C)N(C)C(=O)[C@@H](NC(=O)[C@H]2CCCCN2C)C(C)C)OC(C)=O)n1
**Result** < 0.0025 µM

**Query** One more molecule: CN1CCN(C(=S)N(C)C(=O)c2cccs2)CC1
**Result** > 100 µM

**Query** One more molecule: COC(=O)/C(C#N)=C(\Nc1ccccc1)N1CCCCC1
**Result** > 100 µM

**Query** One more molecule: CCCCCCCCCCCCNC1(C)CNCCCNCCNCCCNC1
**Result** 3.2 µM

**Query** One more molecule: COc1cc(/C=C2\N=C(c3ccccc3)N(/N=C/c3cc4cc(C)ccc4nc3Cl)C2=O)cc(OC)c1OC
**Result** 63.7 µM

**Query** One more molecule: CNC(=S)NNC1=NCCCCN1
**Result** > 100 µM

**Query** One more molecule: C=CC1(c2ccc(Br)cc2)OCCCO1
**Result** > 100 µM

**Query** One more molecule: CO[C@H](c1ccccc1)[C@H](O)[C@](O)(c1ccccc1)P(=O)(OC)OC
**Result** > 100 µM

**Query** One more molecule: Cc1ccccc1NC(=O)/C(C#N)=N\Nc1nc[nH]c1C(N)=O
**Result** > 100 µM

Source listed as PubChem BioAssay (NCI).
